Details: 283.15 K; 101.33 kPa; Liquid; Cone and plate viscometry
Measurement label: log10 of viscosity (log10 of the value in mPa·s)
Hi team, quick reminder: these entries are log10 of viscosity (mPa·s).

Task: Name the recorded log10 of viscosity for "CCCC[S+]1CCCC1.O=S(=O)([N-]S(=O)(=O)C(F)(F)F)C(F)(F)F" .
Output: 2.31

* * *

Conditions: 333.15 K; 101.33 kPa; Liquid; Vibrating tube method
Measurement label: mass density (kg/m3)
Use kg/m3 as the unit, but write only the number.

Before answering, review these 5 worked examples.
Compound | Endpoint unit | mass density
CCCCCCCCC[P+](CC)(CC)CC.O=[N+]([O-])c1cn[n-]c1 [triethylnonylphosphonium 4-nitropyrazolide] | kg/m3 | 1001.1
CC(=O)[O-].CCCCCCCCCCCCCC[P+](CCCCCC)(CCCCCC)CCCCCC [trihexyl(tetradecyl)phosphonium acetate] | kg/m3 | 864.7
CCCCCCCCCCCCCC[P+](CCCCCC)(CCCCCC)CCCCCC.O=[N+]([O-])c1c[n-]cn1 [trihexyl(tetradecyl)phosphonium 4-nitroimidazolide] | kg/m3 | 919.7
CC[P+](CC)(CC)COCCOC.O=S(=O)([N-]S(=O)(=O)C(F)(F)F)C(F)(F)F | kg/m3 | 1329
CCCC[S+]1CCCC1.O=S(=O)([N-]S(=O)(=O)C(F)(F)F)C(F)(F)F | kg/m3 | 1422.7

Task: Name the recorded mass density for CCCCCCCCCCCCCC[P+](CCCCCC)(CCCCCC)CCCCCC.N#Cc1nc[n-]c1C#N [trihexyl(tetradecyl)phosphonium 4,5-dicyanoimidazolide] .
Output: 899.6

Task: Param item: CCCC[n+]1cccn1C.O=S(=O)([N-]S(=O)(=O)C(F)(F)F)C(F)(F)F [1-butyl-2-methylpyrazolium bis(trifluoromethylsulfonyl)imide]
Output: 1418.4

Task: Param item: CCCCCCCC[P+](CC)(CC)CC.O=[N+]([O-])c1cn[n-]c1 [triethyloctylphosphonium 4-nitropyrazolide]
Output: 1010.2

Task: Param item: "CCCCCCSC(N(C)C)=[N+](C)C.O=S(=O)([N-]S(=O)(=O)C(F)(F)F)C(F)(F)F"
Output: 1308.5

Task: Param item: CCCCCCCCCCCCCC[P+](CCCCCC)(CCCCCC)CCCCCC.O=[N+]([O-])c1cn[n-]c1 [trihexyl(tetradecyl)phosphonium 4-nitropyrazolide]
Output: 918.7

Task: Param item: CCCCCCCCCCCCCC[P+](CCCCCC)(CCCCCC)CCCCCC.Cc1ncc([N+](=O)[O-])[n-]1 [trihexyl(tetradecyl)phosphonium 2-methyl-5-nitroimidazolide]
Output: 918.2

Task: Param item: "CCCCCCCCCCCCCC[P+](CCCCCC)(CCCCCC)CCCCCC.O=S(=O)([N-]S(=O)(=O)C(F)(F)F)C(F)(F)F"
Output: 1040.1

Task: Param item: CCCCCCn1cc[n+](C)c1.N#Cc1ccc[n-]1 [1-hexyl-3-methylimidazolium 2-cyanopyrrolide]
Output: 1001

Task: Param item: CCCCCCCCCCCCCC[P+](CCCCCC)(CCCCCC)CCCCCC.Clc1nc[n-]c1Cl [trihexyl(tetradecyl)phosphonium 4,5-dichloroimidazolide]
Output: 943.2

Task: Param item: CCCCCCn1cc[n+](C)c1C.O=[N+]([O-])c1cn[n-]c1 [1-hexyl-2,3-dimethylimidazolium 4-nitropyrazolide]
Output: 1096.6
